For each record, write down the corresponding Ratio.
target: YAP1-TEAD4 (Homo sapiens) (UniProt P46937+Q15561); experiment: Covalent inhibition of GST-tagged TEAD4 (217 to 434 residues) (unknown origin) expressed in Escherichia coli BL21 (DE3) cells/FAM-labelled YAP1 (60 to 99 residues)(unknown origin) protein-protein interaction assessed as protein-compound adduct formation by second order rate constant, kinact/ki ratio at 100 uM incubated for 0.5 to 6 hrs at 4 degree C followed by mass spectrometry analysis; conditions: time 0.5-6 hrs
Give bare numbers, in M⁻¹ s⁻¹.

Reference set (5 entries):
* O=C(CCl)NCCSc1ccc(Cl)cc1 | 1.6
* CCOc1ccc(S(=O)(=O)N2CCN(C(=O)CCl)CC2)cc1 | 2.4
* COc1cccc(C2CC(Cc3cccs3)=NN2C(=O)CCl)c1OC (stereo not drawn) | 8.3
* O=C(Nc1ccccc1)C1CCN(C(=O)CCl)CC1 | 28.1
* O=C(NCCc1ccccc1)C(c1cccs1)N(C(=O)CCl)c1cccc(Cl)c1 (stereo not drawn) | 5.1

Provide Ratio values for the following items, in order.
1. NC(=O)c1oc2ccccc2c1NC(=O)CCl
2. CCS(=O)(=O)Oc1ccc(CN(Cc2ccc(F)cc2)C(=O)CCl)cc1
3. Cc1ccc(C2=NN(C(=O)CCl)C(c3ccco3)C2)cc1 (stereo not drawn)

RESULT:
0.3
1.3
13.5

The origin of these recorded values is ChEMBL document CHEMBL5329172.
